- Test system: Jurkat
- PROCEDURE SUMMARY: cell count relative to DMSO control (fraction of control); higher = more cells (less growth inhibition)
- CONDITION INFO: 48 h
Counter-ions that a name gives are not always drawn.
The label depends only on cell count: Y if it is at least 0.8, N if it is smaller.

Recorded results for 5 molecules are shown here.
1) CO[C@H]1C[C@@H]2CC[C@@H](C)[C@@](O)(O2)C(=O)C(=O)N2CCCC[C@H]2C(=O)O[C@H]([C@H](C)C[C@@H]2CC[C@@H](OC(=O)C(C)(CO)CO)[C@H](OC)C2)CC(=O)[C@H](C)/C=C(\C)[C@@H](O)[C@@H](OC)C(=O)[C@H](C)C[C@H](C)/C=C/C=C/C=C/1C [Temsirolimus] (concentration: 25 µM) | N
2) CCN(CC)CCOC(=O)C1(C2CCCCC2)CCCCC1 [Dicyclomine·HCl] (concentration: 25 µM) | Y
3) O=C1CCCC(=O)C1C(=O)c1ccc(C(F)(F)F)cc1[N+](=O)[O-] [Nitisinone] (concentration: 25 µM) | Y
4) CCOC(=O)C1=C(C)NC(C)=C(C(=O)OC)C1c1cccc(Cl)c1Cl (centres undefined) [Felodipine] (concentration: 25 µM) | Y
5) CCn1cc(C(=O)O)c(=O)c2cc(F)c(N3CCNCC3)cc21 [Norfloxacin] (concentration: 25 µM) | Y

Ask: Could you verify whether the entry Oc1ccc(C2CNCCc3c2cc(O)c(O)c3Cl)cc1 (centres undefined) [Fenoldopam Mesylate] (concentration: 25 µM) shows cell count of no less than 0.8?
Reply: N

Ask: Could you verify whether the entry CCN1CCN(C(=O)N[C@@H](C(=O)N[C@@H]2C(=O)N3[C@@H]2SC(C)(C)[C@@H]3C(=O)O)c2ccccc2)C(=O)C1=O [Piperacillin] (concentration: 25 µM) shows cell count of no less than 0.8?
Reply: Y

Ask: Could you verify whether the entry N=C(N)N [Guanidine·HCl] (concentration: 25 µM) shows cell count of no less than 0.8?
Reply: Y

Ask: Could you verify whether the entry CC(=O)O[C@@]12CO[C@@H]1C[C@H](O)[C@@]1(C)C(=O)[C@H](O)C3=C(C)[C@@H](OC(=O)[C@H](O)[C@@H](NC(=O)OC(C)(C)C)c4ccccc4)C[C@@](O)([C@@H](OC(=O)c4ccccc4)[C@H]21)C3(C)C [Docetaxel (Taxotere)] (concentration: 25 nM) shows cell count of no less than 0.8?
Reply: N

Ask: Could you verify whether the entry c1ccc2c(CC3=NCCN3)cccc2c1 [Naphazoline·HCl] (concentration: 25 µM) shows cell count of no less than 0.8?
Reply: Y
